Recorded Kd, one value per entry.
SUBJECT_OF_TEST: RSV prefusion F (preF), DS-Cav1 (respiratory syncytial virus, UniProt P03420 26-513)
METHOD: BLI, IgG on sensor, 100 nM antigen
Give the value, in units of nM, as a plain number.

Consider the following illustrative entries.
[
  {
    "BINDER": "ADI-41427 (antibody, V domains shown, IgG1) VH: QVQLVESGPGLVKPSETLSLTCTVSGGSIGGYYWSWIRQPPGKGLEWIGYMYYSGSTNYNPSLKSRVTMSVDTSKNQFSLKLTSVTAADTAVYYCARVLRFLVGGMDVWGQGTTVTVSS VL: QSVLIQPASVSGSPGQSITISCTGTSSDVGGYNYVSWYQQHPGKAPKLIIYEVSNRPSGVSNRFSGSKSGNTASLTISGLQAEDEADYYCNSYTTIATLVFGTGTKVTVL",
    "UNIT_OF_MEASUREMENT": "nM",
    "Kd": 2.7
  },
  {
    "BINDER": "ADI-41434 (antibody, V domains shown, IgG1; also called Ab 718) VH: EVQLVESGGGLVQPGRSLRLSCEASGFTFDDYAMHWVRQTPGKGLEWVSGISWNSGSIVYADSVKGRFTISRDNAKNSLYLQMHSLRPEDTALYYCAKDNYTFGNYYYYYGMDVWGQGTTVTVSS VL: EIVLTQSPVTLSVSPGERATLSCRASQNVISNLAWYQQKPGQAPRLLIYGASTRATGIPARFSGSGSGTEFTLTISSLQSEDFAVYYCQQYNNWPLSFGGGTKVEIK",
    "UNIT_OF_MEASUREMENT": "nM",
    "Kd": 0.613
  },
  {
    "BINDER": "ADI-41405 (antibody, V domains shown, IgG1) VH: EVQLLESGGGLVQPGGSLRLSCAASGFSFSIYSMNWVRQAPGKGLEWISYITSTGSPTYYADSVKGRFTISRDNAKNSLYLQMSSLRAEDTAVYYCVTYCSSSSCPAEFDYWGQGTLVTVSS VL: EIVLTQSPATLSLSPGERATLSCRASQSVNSYLAWYQQKPGQAPRLLIYDASNRATGIPARFSGSGSGTDFTLTISSLEAEDFAVYYCQHRNNWPALTFGGGTKVEIK",
    "UNIT_OF_MEASUREMENT": "nM",
    "Kd": 2.72
  },
  {
    "BINDER": "ADI-41444 (antibody, V domains shown, IgG1) VH: EVQLVESGPRLVKPSQTLSLTCTVSGGSIGTGDYHWTWIRQSPGKGLEWIGNIYYNGRTFYNPSLKGRGSISRDASKNQFSLNLSSVSAADTAVYYCARDRAAKGFDHWGQGTLVTVSS VL: DIQLTQSPSTLSASVGDRVTITCRASQNINGWLAWYQQKPGRVPKLLIYKASTLESGVPSRFSGSASGTEFTLTINNLLPDDFATYYCQQYNDYPYTFGQGTKVEIK",
    "UNIT_OF_MEASUREMENT": "nM",
    "Kd": 3.01
  }
]

Could you now look at the following binder, please?
query: Suppose we examine the binder ADI-41365 (antibody, V domains shown, IgG1) VH: EVQLVESGGGLVKPGGSLRLSCATSGFTFSDYYMTWIRQAPGKGLEWVSYISSSGGYTNYADSVRGRFTISRDNAKRSLYLQMNSLRAEDTAVYYCARVEFSSGDVPSLFDSWGQGTLVTVSS VL: QSVLTQPPSVSGAPGQRVTISCTGSSSNLGAGYHVHWYQQFPGTAPKPLIYGNTNRPSGVPDRFSGSKSGTSASLAITGVQAEDEADYYCQSYDYSLSGWVFGGGTKLTVL ; what Kd value has been reported?
result: 2.87

Origin of measurements: patent US20260258115A1
